Reference source: patent US6914045B2

# System: Staphylococcus sp.
# procedure-summary: in vitro antibacterial evaluation, MIC by broth dilution
# Format: cell-based
# run-conditions: broth dilution, 18 hours at 35° C.; strain GC 4543
measure-name: MIC Staphylococcus aureus-SMITH (GC 4543) (µg/mL)
Numbers only, in µg/mL.

As a guide, the following entries are already answered.
Quick check: MIC Staphylococcus aureus-SMITH (GC 4543) of Cc1cccc(C2OCC3OC(OC4C(CO)OC(Oc5ccc(CC6NC(=O)C(C(C)c7ccccc7)NC(=O)CNC(=O)C(CO)NC(=O)C(C(O)C7CNC(=N)N7C7OC(CO)C(O)C(O)C7O)NC(=O)C(C(O)C7CNC(=N)N7)NC6=O)cc5)C(O)C4O)C(O)C(O)C3O2)c1 (stereo not shown) [Example 135] ?
1

Quick check: MIC Staphylococcus aureus-SMITH (GC 4543) of CC(c1ccccc1)C1NC(=O)CNC(=O)C(CO)NC(=O)C(C(O)C2CNC(=N)N2C2OC(CO)C(O)C(O)C2O)NC(=O)C(C(O)C2CNC(=N)N2)NC(=O)C(Cc2ccc(OC3OC(CO)C(OC4OC5COC(CC67CC8CC(CC(C8)C6)C7)OC5C(O)C4O)C(O)C3O)cc2)NC1=O (stereo not shown) [Example 129] ?
2

Quick check: MIC Staphylococcus aureus-SMITH (GC 4543) of CC(c1ccccc1)C1NC(=O)CNC(=O)C(CO)NC(=O)C(C(O)C2CNC(=N)N2C2OC(CO)C(O)C(O)C2O)NC(=O)C(C(O)C2CNC(=N)N2)NC(=O)C(Cc2ccc(OC3OC(CO)C(OC4OC(CO)C(OCC=C(c5ccccc5)c5ccccc5)C(O)C4O)C(O)C3O)cc2)NC1=O (stereo not shown) [Example 241a] ?
2

Fill in MIC Staphylococcus aureus-SMITH (GC 4543) for each of the 2 compounds listed.
1. CC(c1ccccc1)C1NC(=O)CNC(=O)C(CO)NC(=O)C(C(O)C2CNC(=N)N2C2OC(CO)C(O)C(O)C2O)NC(=O)C(C(O)C2CNC(=N)N2)NC(=O)C(Cc2ccc(OC3OC(CO)C(OC4OC5COC(c6ccsc6)OC5C(O)C4O)C(O)C3O)cc2)NC1=O (stereo not shown) [Example 133]
2. COc1cccc(C2OC3C(OC4C(CO)OC(Oc5ccc(CC6NC(=O)C(C(C)c7ccccc7)NC(=O)CNC(=O)C(CO)NC(=O)C(C(O)C7CNC(=N)N7C7OC(CO)C(O)C(O)C7O)NC(=O)C(C(O)C7CNC(=N)N7)NC6=O)cc5)C(O)C4O)OC(CO)C(O)C3O2)c1 (single isomer, unassigned) [Example 137a]

1. 1
2. 16

###

# System: Staphylococcus sp.
# procedure-summary: in vitro antibacterial evaluation, MIC by broth dilution
# Type: cell-based
# run-conditions: strain GC 3051; broth dilution, 18 hours at 35° C.
measure-name: MIC Staphylococcus aureus (GC 3051) (µg/mL)
Numbers only, in µg/mL.

Quick check: MIC Staphylococcus aureus (GC 3051) of CC(c1ccccc1)C1NC(=O)CNC(=O)C(CO)NC(=O)C(C(O)C2CN(Cc3ccc(C(F)(F)F)cc3)C(=N)N2C2OC(CO)C(O)C(O)C2O)NC(=O)C(C(O)C2CNC(=N)N2)NC(=O)C(Cc2ccc(OC3OC(CO)C(OC4OC5COC6(OC5C(O)C4O)C4CC5CC(C4)CC6C5)C(O)C3O)cc2)NC1=O (stereo not shown) ?
16

Kindly review the next molecule as well.
Quick check: MIC Staphylococcus aureus (GC 3051) of CC(c1ccccc1)C1NC(=O)CNC(=O)C(CO)NC(=O)C(C(O)C2CN(Cc3ccccc3)C(=NCc3ccccc3)N2C2OC(CO)C(O)C(O)C2O)NC(=O)C(C(O)C2CN(Cc3ccccc3)C(=NCc3ccccc3)N2Cc2ccccc2)NC(=O)C(Cc2ccc(OC3OC(CO)C(OC4OC5COC6(OC5C(O)C4O)C4CC5CC(C4)CC6C5)C(O)C3O)cc2)NC1=O (stereo not shown) ?
4

###

# System: Enterococcus sp.
# procedure-summary: in vitro antibacterial evaluation, MIC by broth dilution
# Type: cell-based
# run-conditions: broth dilution, 18 hours at 35° C.; strain GC 3059
Please provide measured MIC Enterococcus faecalis (GC 3059) for the entries that follow.
Give bare numbers, in mg/L.

Quick check: MIC Enterococcus faecalis (GC 3059) of COc1ccc(CC2OCC3OC(OC4C(CO)OC(Oc5ccc(CC6NC(=O)C(C(C)c7ccccc7)NC(=O)CNC(=O)C(CO)NC(=O)C(C(O)C7CNC(=N)N7C7OC(CO)C(O)C(O)C7O)NC(=O)C(C(O)C7CNC(=N)N7)NC6=O)cc5)C(O)C4O)C(O)C(O)C3O2)cc1 (stereo not shown) [Example 103] ?
8

Quick check: MIC Enterococcus faecalis (GC 3059) of CC(c1ccccc1)C1NC(=O)CNC(=O)C(CO)NC(=O)C(C(O)C2CN(Cc3ccc(C(C)(C)C)cc3)C(=N)N2C2OC(CO)C(O)C(O)C2O)NC(=O)C(C(O)C2CNC(=N)N2)NC(=O)C(Cc2ccc(OC3OC(CO)C(OC4OC5COC6(OC5C(O)C4O)C4CC5CC(C4)CC6C5)C(O)C3O)cc2)NC1=O (stereo not shown) [Example 77] ?
16

Kindly review the next compound as well.
Quick check: MIC Enterococcus faecalis (GC 3059) of CC(C)=CCCC1OCC2OC(OC3C(CO)OC(Oc4ccc(CC5NC(=O)C(C(C)c6ccccc6)NC(=O)CNC(=O)C(CO)NC(=O)C(C(O)C6CNC(=N)N6C6OC(CO)C(O)C(O)C6O)NC(=O)C(C(O)C6CNC(=N)N6)NC5=O)cc4)C(O)C3O)C(O)C(O)C2O1 (stereo not shown) [Example 123] ?
16

###

# Tested on: Enterococcus sp.
# procedure-summary: in vitro antibacterial evaluation, MIC by broth dilution
# Format: cell-based
# run-conditions: strain GC 2242; broth dilution, 18 hours at 35° C.
measure-name: MIC Enterococcus faecalis (GC 2242)

As a guide, the following entries are already answered.
Quick check: MIC Enterococcus faecalis (GC 2242) of CC(c1ccccc1)C1NC(=O)CNC(=O)C(CO)NC(=O)C(C(O)C2CNC(=N)N2C2OC(CO)C(O)C(O)C2O)NC(=O)C(C(O)C2CNC(=N)N2)NC(=O)C(Cc2ccc(OC3OC(CO)C(OC4OC5COC(c6ccc(-c7cccs7)cc6)OC5C(O)C4O)C(O)C3O)cc2)NC1=O (stereo not drawn) ?
4 µg/mL

Quick check: MIC Enterococcus faecalis (GC 2242) of CC(C1CCCCC1)C1NC(=O)CNC(=O)C(CO)NC(=O)C(C(O)C2CNC(=N)N2C2OC(CO)C(O)C(O)C2O)NC(=O)C(C(O)C2CNC(=N)N2)NC(=O)C(CC2CCC(OC3OC(CO)C(OC4OC(CO)C(O)C(O)C4O)C(O)C3O)CC2)NC1=O (stereo not drawn) [Example 53a] ?
>128 µg/mL

Quick check: MIC Enterococcus faecalis (GC 2242) of CC(c1ccccc1)C1NC(=O)CNC(=O)C(CO)NC(=O)C(CC2CNC(=N)N2C2OC(CO)C(O)C(O)C2O)NC(=O)C(CC2CNC(=N)N2)NC(=O)C(Cc2ccc3oc(-c4ccc5c(c4)Cc4ccccc4-5)nc3c2)NC1=O (stereo not drawn) ?
8 µg/mL

Quick check: MIC Enterococcus faecalis (GC 2242) of Cc1cc(C2OCC3OC(OC4C(CO)OC(Oc5ccc(CC6NC(=O)C(C(C)c7ccccc7)NC(=O)CNC(=O)C(CO)NC(=O)C(C(O)C7CNC(=N)N7C7OC(CO)C(O)C(O)C7O)NC(=O)C(C(O)C7CNC(=N)N7)NC6=O)cc5)C(O)C4O)C(O)C(O)C3O2)ccc1[N+](=O)[O-] (stereo not drawn) ?
16 µg/mL

Quick check: MIC Enterococcus faecalis (GC 2242) of CC(c1ccccc1)C1NC(=O)CNC(=O)C(CO)NC(=O)C(C(O)C2CNC(=N)N2C2OC(CO)C(O)C(O)C2O)NC(=O)C(C(O)C2CNC(=N)N2)NC(=O)C(Cc2ccc3oc(SCc4ccccc4)nc3c2)NC1=O (stereo not drawn) ?
16 µg/mL

Kindly review the next compound as well.
Quick check: MIC Enterococcus faecalis (GC 2242) of CSc1ccc(C2OCC3OC(OC4C(CO)OC(Oc5ccc(CC6NC(=O)C(C(C)c7ccccc7)NC(=O)CNC(=O)C(CO)NC(=O)C(C(O)C7CNC(=N)N7C7OC(CO)C(O)C(O)C7O)NC(=O)C(C(O)C7CNC(=N)N7)NC6=O)cc5)C(O)C4O)C(O)C(O)C3O2)cc1 (stereo not drawn) ?
2 µg/mL

###

# Tested on: Staphylococcus sp.
# procedure-summary: in vitro antibacterial evaluation, MIC by broth dilution
# Format: cell-based
# run-conditions: broth dilution, 18 hours at 35° C.; strain GC 4551
measure-name: MIC Coagulase Negative Staphylococcus (GC 4551) (µg/mL)
Numbers only, in µg/mL.

Kindly state the measured MIC Coagulase Negative Staphylococcus (GC 4551) obtained for CCCCOC(=O)CCC1OCC2OC(OC3C(CO)OC(Oc4ccc(CC5NC(=O)C(C(C)c6ccccc6)NC(=O)CNC(=O)C(CO)NC(=O)C(C(O)C6CNC(=N)N6C6OC(CO)C(O)C(O)C6O)NC(=O)C(C(O)C6CNC(=N)N6)NC5=O)cc4)C(O)C3O)C(O)C(O)C2O1 (centres unmarked) with Staphylococcus sp..
2

Kindly state the measured MIC Coagulase Negative Staphylococcus (GC 4551) obtained for COc1ccc2cc(COC3C(CO)OC(OC4C(CO)OC(Oc5ccc(CC6NC(=O)C(C(C)c7ccccc7)NC(=O)CNC(=O)C(CO)NC(=O)C(CC7CNC(=N)N7C7OC(CO)C(O)C(O)C7O)NC(=O)C(CC7CNC(=N)N7)NC6=O)cc5)C(O)C4O)C(O)C3O)ccc2c1 (centres unmarked) [Example 245a] with Staphylococcus sp..
2

Kindly state the measured MIC Coagulase Negative Staphylococcus (GC 4551) obtained for CC(c1ccccc1)C1NC(=O)CNC(=O)C(CO)NC(=O)C(C(O)C2CNC(=N)N2C2OC(CO)C(O)C(O)C2O)NC(=O)C(C(O)C2CNC(=N)N2)NC(=O)C(Cc2ccc(OC3OC(CO)C(OC4OC5COC(c6ccc7c(c6)OCCO7)OC5C(O)C4O)C(O)C3O)cc2)NC1=O (centres unmarked) with Staphylococcus sp..
1

Kindly state the measured MIC Coagulase Negative Staphylococcus (GC 4551) obtained for CC(C)=CCCC(C)CC1OCC2OC(OC3C(CO)OC(Oc4ccc(CC5NC(=O)C(C(C)c6ccccc6)NC(=O)CNC(=O)C(CO)NC(=O)C(C(O)C6CNC(=N)N6C6OC(CO)C(O)C(O)C6O)NC(=O)C(C(O)C6CNC(=N)N6)NC5=O)cc4)C(O)C3O)C(O)C(O)C2O1 (centres unmarked) with Staphylococcus sp..
8

Kindly state the measured MIC Coagulase Negative Staphylococcus (GC 4551) obtained for CC(c1ccccc1)C1NC(=O)CNC(=O)C(CO)NC(=O)C(C(O)C2CNC(=N)N2C2OC(CO)C(O)C(O)C2O)NC(=O)C(C(O)C2CNC(=N)N2)NC(=O)C(Cc2ccc(OC3OC(CO)C(OC4OC5COC(Cc6ccc(F)cc6)OC5C(O)C4O)C(O)C3O)cc2)NC1=O (centres unmarked) with Staphylococcus sp..
2

Fill in MIC Coagulase Negative Staphylococcus (GC 4551) for each of the 3 compounds listed.
1. CC(c1ccccc1)C1NC(=O)CNC(=O)C(CO)NC(=O)C(C(O)C2CNC(=N)N2C2OC(CO)C(O)C(O)C2O)NC(=O)C(C(O)C2CNC(=N)N2)NC(=O)C(Cc2ccc(OC3OC(CO)C(OC4OC5COC(c6ccccc6)OC5C(O)C4O)C(O)C3O)cc2)NC1=O (centres unmarked)
2. COc1ccc(COCC2OC(OC3C(CO)OC(Oc4ccc(CC5NC(=O)C(C(C)c6ccccc6)NC(=O)CNC(=O)C(CO)NC(=O)C(C(O)C6CNC(=N)N6C6OC(CO)C(O)C(O)C6O)NC(=O)C(C(O)C6CNC(=N)N6)NC5=O)cc4)C(O)C3O)C(O)C(O)C2O)cc1OCc1ccccc1 (centres unmarked)
3. CC(c1ccccc1)C1NC(=O)CNC(=O)C(CO)NC(=O)C(C(O)C2CN(c3nc4ccccc4o3)C(=N)N2C2OC(CO)C(O)C(O)C2O)NC(=O)C(C(O)C2CNC(=Nc3nc4ccccc4o3)N2)NC(=O)C(Cc2ccc(OC3OC(CO)C(OC4OC5COC6(OC5C(O)C4O)C4CC5CC(C4)CC6C5)C(O)C3O)cc2)NC1=O (centres unmarked)

[1, 2, 8]

Fill in MIC Coagulase Negative Staphylococcus (GC 4551) for each of the 5 compounds listed.
1. N=C1NCC(C(O)C2NC(=O)C(Cc3ccc(OC4OC(CO)C(OC5OC(CO)C(O)C6OC7(OC56)C5CC6CC(C5)CC7C6)C(O)C4O)cc3)NC(=O)C(CC3CCCCC3)NC(=O)CNC(=O)C(CO)NC(=O)C(C(O)C3CNC(=N)N3C3OC(CO)C(O)C(O)C3O)NC2=O)N1 (centres unmarked) [Example 106a]
2. CC(c1ccccc1)C1NC(=O)CNC(=O)C(CO)NC(=O)C(C(O)C2CNC(=N)N2C2OC(CO)C(O)C(O)C2O)NC(=O)C(C(O)C2CNC(=N)N2)NC(=O)C(Cc2ccc(OC3OC(CO)C(OC4OC5COC(C6CCCC6)OC5C(O)C4O)C(O)C3O)cc2)NC1=O (centres unmarked)
3. CC(c1ccccc1)C1NC(=O)CNC(=O)C(CO)NC(=O)C(C(O)C2CNC(=N)N2C2OC(CO)C(O)C(O)C2O)NC(=O)C(C(O)C2CNC(=N)N2)NC(=O)C(Cc2ccc(OC3OC(CO)C(OC4OC5COC(C6CC=CCC6)OC5C(O)C4O)C(O)C3O)cc2)NC1=O (centres unmarked)
4. COc1ccc2cc(COC3C(OC4C(CO)OC(Oc5ccc(CC6NC(=O)C(C(C)c7ccccc7)NC(=O)CNC(=O)C(CO)NC(=O)C(CC7CNC(=N)N7C7OC(CO)C(O)C(O)C7O)NC(=O)C(CC7CNC(=N)N7)NC6=O)cc5)C(O)C4O)OC(CO)C(O)C3O)ccc2c1 (centres unmarked) [Example 245c]
5. COc1ccc2cc(COCC3OC(OC4C(CO)OC(Oc5ccc(CC6NC(=O)C(C(C)c7ccccc7)NC(=O)CNC(=O)C(CO)NC(=O)C(C(O)C7CNC(=N)N7C7OC(CO)C(O)C(O)C7O)NC(=O)C(C(O)C7CNC(=N)N7)NC6=O)cc5)C(O)C4O)C(O)C(O)C3O)ccc2c1 (centres unmarked)

[2, 2, 1, 128, 2]
